assayComment: Cytotoxicity against rat H4IIE cells assessed as cell viability at 0.6 uM after 24 hrs by MTT assay relative to control
Format: toxicity
experimentalSetup: read-out: Activity
Flag rule - viability at 24 h, 0.6 µM less than 60% flags met; the remaining entries get not met.

A record lists Cc1ccc(C(C)C)cc1OC(=O)Nc1ccccc1 . Is its viability at 24 h, 0.6 µM below 60%?
not met

A record lists Cc1ccc(C(C)C)cc1OC(=O)NC1CCCC1 . Is its viability at 24 h, 0.6 µM below 60%?
not met

A record lists Cc1ccc(C(C)C)cc1OC(=O)Nc1ccc(F)cc1 . Is its viability at 24 h, 0.6 µM below 60%?
not met

A record lists Cc1ccc(C(C)C)c(OC(=O)Nc2ccc([N+](=O)[O-])cc2)c1 . Is its viability at 24 h, 0.6 µM below 60%?
met

A record lists Cc1ccc(C(C)C)cc1OC(=O)Nc1cccc(F)c1 . Is its viability at 24 h, 0.6 µM below 60%?
not met

* * *

assayComment: Cytotoxicity against rat H4IIE cells assessed as cell viability at 10 uM after 24 hrs by MTT assay relative to control
Assay type: toxicity
experimentalSetup: read-out: Activity
measureName: viability at 24 h, 10 µM (%)
Please reply with the bare figure in % and do not write the unit itself.

Give viability at 24 h, 10 µM for Cc1ccc(C(C)C)cc1OC(=O)NC1CCCC1
37.4

Give viability at 24 h, 10 µM for Cc1ccc(C(C)C)cc1OC(=O)Nc1ccc(F)cc1
28.5

Give viability at 24 h, 10 µM for Cc1ccc(C(C)C)cc1OC(=O)Nc1cccc(F)c1
28.5

Give viability at 24 h, 10 µM for Cc1ccc(C(C)C)cc1OC(=O)Nc1ccccc1
26

Give viability at 24 h, 10 µM for Cc1ccc(C(C)C)c(OC(=O)Nc2ccc([N+](=O)[O-])cc2)c1
26.1

* * *

assayComment: Cytotoxicity against rat H4IIE cells assessed as cell viability at 0.07 uM after 24 hrs by MTT assay relative to control
Assay type: toxicity
experimentalSetup: read-out: Activity
measureName: viability at 24 h, 0.07 µM (%)
Please reply with the bare figure in % and do not write the unit itself.

Give viability at 24 h, 0.07 µM for Cc1ccc(C(C)C)cc1OC(=O)Nc1cccc(F)c1
98.1

Give viability at 24 h, 0.07 µM for Cc1ccc(C(C)C)c(OC(=O)Nc2ccc([N+](=O)[O-])cc2)c1
97.8

Give viability at 24 h, 0.07 µM for Cc1ccc(C(C)C)cc1OC(=O)Nc1ccc(F)cc1
92.8

Give viability at 24 h, 0.07 µM for Cc1ccc(C(C)C)cc1OC(=O)NC1CCCC1
94.4

Give viability at 24 h, 0.07 µM for Cc1ccc(C(C)C)cc1OC(=O)Nc1ccccc1
93.8

* * *

assayComment: Cytotoxicity against rat H4IIE cells assessed as cell viability at 2.5 uM after 24 hrs by MTT assay relative to control
Format: toxicity
experimentalSetup: read-out: Activity
measureName: viability at 24 h, 2.5 µM (%)
Please reply with the bare figure in % and do not write the unit itself.

Give viability at 24 h, 2.5 µM for Cc1ccc(C(C)C)c(OC(=O)Nc2ccc([N+](=O)[O-])cc2)c1
40

Give viability at 24 h, 2.5 µM for Cc1ccc(C(C)C)cc1OC(=O)Nc1ccc(F)cc1
41.6

Give viability at 24 h, 2.5 µM for Cc1ccc(C(C)C)cc1OC(=O)Nc1cccc(F)c1
45.8

Give viability at 24 h, 2.5 µM for Cc1ccc(C(C)C)cc1OC(=O)NC1CCCC1
47.8

Give viability at 24 h, 2.5 µM for Cc1ccc(C(C)C)cc1OC(=O)Nc1ccccc1
43.3

* * *

Here's what we have: IC50 numbers for Acetylcholinesterase (Electrophorus electricus, UniProt O42275).
Please reply with the bare figure in µM and do not write the unit itself.

Give IC50 for Cc1ccc(C(C)C)c(OC(=O)Nc2ccc([N+](=O)[O-])cc2)c1
2.5

Give IC50 for Cc1ccc(C(C)C)c(OC(=O)Nc2ccccc2)c1
198

Give IC50 for Cc1ccc(C(C)C)cc1O
288

Give IC50 for Cc1ccc(C(C)C)c(OC(=O)Nc2cccc(F)c2)c1
88.5

Give IC50 for Cc1ccc(C(C)C)c(OC(=O)Nc2ccc(F)cc2)c1
270

Give IC50 for Cc1ccc(C(C)C)cc1OC(=O)Nc1ccccc1
4.01

Give IC50 for Cc1ccc(C(C)C)cc1OC(=O)Nc1ccc(F)cc1
3.02

Give IC50 for Cc1ccc(C(C)C)c(OC(=O)Nc2ccc(Cl)cc2)c1
229

Give IC50 for Cc1ccc(C(C)C)c(OC(=O)Nc2ccc(C(F)(F)F)cc2)c1
98.5

Give IC50 for Cc1ccc(C(C)C)cc1OC(=O)Nc1cccc2ccccc12
127

Give IC50 for Cc1ccc(C(C)C)cc1OC(=O)NCC1CCCCC1
8.08

Give IC50 for Cc1ccc(C(C)C)cc1OC(=O)NCc1ccccc1
77.8

* * *

testedOn: Cholinesterase (Equus caballus, UniProt P81908)
Sequence (P81908 whole entry): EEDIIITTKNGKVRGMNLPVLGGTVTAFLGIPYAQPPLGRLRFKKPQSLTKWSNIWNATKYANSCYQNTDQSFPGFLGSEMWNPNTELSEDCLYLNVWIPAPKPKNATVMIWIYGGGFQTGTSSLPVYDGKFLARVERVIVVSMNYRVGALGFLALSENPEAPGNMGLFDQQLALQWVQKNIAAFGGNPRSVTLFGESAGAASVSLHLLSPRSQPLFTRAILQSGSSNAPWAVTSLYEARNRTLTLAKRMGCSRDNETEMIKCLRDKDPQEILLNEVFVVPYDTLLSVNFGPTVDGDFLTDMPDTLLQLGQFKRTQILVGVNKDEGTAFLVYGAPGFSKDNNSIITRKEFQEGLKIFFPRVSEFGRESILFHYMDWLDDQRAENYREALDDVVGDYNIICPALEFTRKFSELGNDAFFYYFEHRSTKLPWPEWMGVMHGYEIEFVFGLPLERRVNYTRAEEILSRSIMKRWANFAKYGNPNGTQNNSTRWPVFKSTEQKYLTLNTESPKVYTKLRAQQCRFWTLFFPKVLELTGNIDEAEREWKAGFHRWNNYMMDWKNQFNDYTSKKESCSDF
assayComment: Inhibition of horse serum BuChE using butyrylthiocholine iodide as substrate preincubated for 15 mins followed by substrate addition by Ellman's method
pIC50: −log10 of the molar value.
Categorize each record by its pIC50 using low = under 5, middle = from 5 up to 6, high = 6 and over

Which bin should I file COc1ccc(NC(=O)Oc2cc(C(C)C)ccc2C)cc1 under?
high

Which bin should I file Cc1ccc(C(C)C)c(OC(=O)Nc2ccc(C(F)(F)F)cc2)c1 under?
low

Which bin should I file Cc1ccc(C(C)C)cc1OC(=O)NCc1ccccc1 under?
high

Which bin should I file COc1cccc(NC(=O)Oc2cc(C)ccc2C(C)C)c1 under?
middle

Which bin should I file Cc1ccc(C(C)C)cc1OC(=O)Nc1ccc(F)cc1 under?
high

Which bin should I file Cc1ccc(C(C)C)c(OC(=O)Nc2ccc(F)cc2)c1 under?
low

Which bin should I file Cc1ccc(NC(=O)Oc2cc(C(C)C)ccc2C)cc1 under?
high

Which bin should I file Cc1ccc(C(C)C)c(O)c1 under?
low

Which bin should I file Cc1ccc(C(C)C)c(OC(=O)NCC2CCCCC2)c1 under?
low

Which bin should I file Cc1ccc(C(C)C)cc1OC(=O)Nc1ccccc1 under?
high

Which bin should I file Cc1ccc(C(C)C)cc1OC(=O)Nc1ccc(I)cc1 under?
high

Which bin should I file COc1cccc(NC(=O)Oc2cc(C(C)C)ccc2C)c1 under?
middle

Which bin should I file Cc1ccc(C(C)C)c(OC(=O)Nc2ccccc2)c1 under?
middle

Which bin should I file Cc1ccc(C(C)C)c(OC(=O)NC2CCCC2)c1 under?
low

Which bin should I file Cc1ccc(C(C)C)c(OC(=O)Nc2ccc([N+](=O)[O-])cc2)c1 under?
low

Which bin should I file Cc1ccc(C(C)C)c(OC(=O)Nc2ccc(I)cc2)c1 under?
middle

Which bin should I file Cc1ccc(C(C)C)cc1OC(=O)Nc1ccc(Cl)c(Cl)c1 under?
high

Which bin should I file Cc1ccc(C(C)C)cc1O under?
low

Which bin should I file Cc1ccc(C(C)C)cc1OC(=O)Nc1ccc(Br)cc1 under?
high

Which bin should I file Cc1ccc(C(C)C)c(OC(=O)Nc2cccc([N+](=O)[O-])c2)c1 under?
middle

Which bin should I file Cc1ccc(C(C)C)cc1OC(=O)Nc1cccc2ccccc12 under?
high

Which bin should I file Cc1ccc(C(C)C)c(OC(=O)Nc2ccc(Cl)c(Cl)c2)c1 under?
middle

Which bin should I file Cc1ccc(C(C)C)cc1OC(=O)NCC1CCCCC1 under?
high

Which bin should I file Cc1ccc(C(C)C)c(OC(=O)Nc2ccc(Br)cc2)c1 under?
low

Which bin should I file Cc1ccc(C(C)C)cc1OC(=O)Nc1ccc(Cl)cc1 under?
high

Which bin should I file Cc1ccc(C(C)C)cc1OC(=O)NC1CCCCCC1 under?
low

Which bin should I file Cc1ccc(C(C)C)c(OC(=O)Nc2cccc(F)c2)c1 under?
middle

Which bin should I file Cc1ccc(C(C)C)cc1OC(=O)Nc1cccc([N+](=O)[O-])c1 under?
high

Which bin should I file Cc1ccc(C(C)C)c(OC(=O)Nc2cccc3ccccc23)c1 under?
low

Which bin should I file Cc1ccc(C(C)C)c(OC(=O)Nc2ccc(Cl)cc2)c1 under?
low

Which bin should I file COc1ccc(NC(=O)Oc2cc(C)ccc2C(C)C)cc1 under?
low

* * *

measureName: pIC50
Would you please state pIC50, meaning minus log10 of the concentration in mol/L, as a bare number?

Report pIC50 from Acetylcholinesterase (Electrophorus electricus, UniProt O42275) testing of Cc1ccc(C(C)C)c(OC(=O)NCc2ccccc2)c1
3.95

Report pIC50 from Acetylcholinesterase (Electrophorus electricus, UniProt O42275) testing of Cc1ccc(NC(=O)Oc2cc(C)ccc2C(C)C)cc1
3.64

Report pIC50 from Acetylcholinesterase (Electrophorus electricus, UniProt O42275) testing of Cc1ccc(C(C)C)cc1OC(=O)Nc1ccc(C(F)(F)F)cc1
4.07

Report pIC50 from Acetylcholinesterase (Electrophorus electricus, UniProt O42275) testing of Cc1ccc(C(C)C)cc1OC(=O)Nc1ccc(I)cc1
3.86

Report pIC50 from Acetylcholinesterase (Electrophorus electricus, UniProt O42275) testing of Cc1ccc(C(C)C)cc1OC(=O)Nc1ccc(Cl)c(Cl)c1
4.06

Report pIC50 from Acetylcholinesterase (Electrophorus electricus, UniProt O42275) testing of Cc1ccc(C(C)C)cc1OC(=O)NC1CCCCCC1
3.90

Report pIC50 from Acetylcholinesterase (Electrophorus electricus, UniProt O42275) testing of Cc1ccc(C(C)C)c(OC(=O)NC2CCCC2)c1
3.38

Report pIC50 from Acetylcholinesterase (Electrophorus electricus, UniProt O42275) testing of Cc1ccc(C(C)C)cc1OC(=O)Nc1cccc(F)c1
5.65

Report pIC50 from Acetylcholinesterase (Electrophorus electricus, UniProt O42275) testing of Cc1ccc(C(C)C)cc1OC(=O)Nc1ccc(Cl)cc1
3.83

Report pIC50 from Acetylcholinesterase (Electrophorus electricus, UniProt O42275) testing of Cc1ccc(C(C)C)c(OC(=O)Nc2ccc(I)cc2)c1
4.50

Report pIC50 from Acetylcholinesterase (Electrophorus electricus, UniProt O42275) testing of Cc1ccc(C(C)C)cc1OC(=O)NC1CCCC1
5.47

Report pIC50 from Acetylcholinesterase (Electrophorus electricus, UniProt O42275) testing of Cc1ccc(C(C)C)c(OC(=O)Nc2ccc(Br)cc2)c1
4.01

Values compiled from ChEMBL document CHEMBL3877312.
